Each record here notes measured Ki.
PROTOCOL_DETAILS: Compound was evaluated for the inhibition of […] penicillopepsin; ( Value is time-dependent inhibition (TDI) with T1/2 > 30 s.)
Square brackets hold non-standard residues; d marks the D form. Peptide text beside a SMILES is read from it. * marks the point of attachment. ξ: configuration not given here. Sta = CC(C)C[C@H](N)[C@@H](O)CC(=O)O; Isovaleryl = CC(C)CC(=O)*; ξF = NC(Cc1ccccc1)C(=O)O
Lab book: enter the figure in nM, no units written.

COC(=O)C(Cc1ccccc1)NC(=O)C[C@H](O)[C@H](CCCCN)NC(=O)[C@H](NC(=O)C(NC(=O)CC(C)C)C(C)C)C(C)C (some centres not stated)    0.08

API: the following record is the query input.
# lookup: Ki of COC(=O)C(Cc1ccccc1)NC(=O)C[C@H](O)[C@H](CC(C)C)NC(=O)[C@@H](NC(=O)[C@@H](NC(=O)CC(C)C)C(C)C)C(C)C (some centres not stated) (Isovaleryl-VV[Sta][ξF]-OMe)
1.3

----------
PROTOCOL_DETAILS: Compound was evaluated for the inhibition of […] penicillopepsin; Value is time-dependent inhibition (TDI) with T1/2 > 30 s)
METRIC: Ki
The reply must contain the numeric value and, after it, the unit.

# lookup: Ki of CCOC(=O)CC(O)[C@H](CCCN)NC(=O)[C@H](NC(=O)C(NC(=O)CC(C)C)C(C)C)C(C)C (stereo partly specified)
1.1 nM

----------
Each record here notes measured pKi.
PROTOCOL_DETAILS: Compound was evaluated for the inhibition of porcine penicillopepsin
Square brackets hold non-standard residues; d marks the D form. Peptide text beside a SMILES is read from it. * marks the point of attachment. Sta = CC(C)C[C@H](N)[C@@H](O)CC(=O)O; Isovaleryl = CC(C)CC(=O)*
For clarity, pKi is expressed as the negative log10 of concentration in mol/L.

CCOC(=O)C[C@H](O)[C@H](CCCCNC(C)=O)NC(=O)[C@H](NC(=O)C(NC(=O)CC(C)C)C(C)C)C(C)C (some centres not stated)    7.00

API: the following record is the query input.
# lookup: pKi of CCOC(=O)C[C@H](O)[C@H](CC(C)C)NC(=O)[C@@H](NC(=O)[C@@H](NC(=O)CC(C)C)C(C)C)C(C)C (Isovaleryl-Val-Val-[Sta]-OEt)
7.33

Data provenance: ChEMBL document CHEMBL1123668
